Each record here notes measured growth.
test system: HS 578T breast; assay: NCI-60 one-dose screen, 48 h (100 = growth as untreated, 0 = no growth, -100 = all killed); details: 10 µM unless noted
Compounds without any hit were thinned out: in the full panel of roughly 83,000, 20% have a hit.
Use % as the unit, but write only the number.

// worked examples, growth included
CCCC[N+](CCCC)=c1ccc2nc3c(C)cc(N(CC)CC)cc3sc-2c1 = 6.6
O=C(CN1CCCCC1)Sc1nnc2sc3ccccc3n12 = 110

Query: # query: growth of entry O=C(/C=C/c1cc2ccccc2[nH]c1=O)c1ccc(Cl)cc1
Result: 54

Query: Ok, now Cc1c(NCc2nnc3n(Cc4ccccc4)c(=O)c4c5c(sc4n23)CCCC5)c(=O)n(-c2ccccc2)n1C
Result: 90.7

Query: Ok, now CC[C@@H]1OC(=O)[C@H](C)[C@@H](O[C@H]2C[C@@](C)(OC)[C@@H](O)[C@H](C)O2)[C@H](C)[C@@H](O[C@@H]2O[C@H](C)C[C@H](N(C)C)[C@H]2O)[C@](C)(O)C[C@@H](C)[C@@H]2N[C@@H](COCCOC)O[C@H]([C@H]2C)[C@]1(C)O
Result: 115

Query: Ok, now COc1cc(C(=O)/C=C/c2cccnc2Nc2ccccc2)cc(OC)c1OC
Result: 24.2

Query: Ok, now CCn1c2c(c3ccccc31)SC1c3cccn3CCN1C2=S (stereo unspecified)
Result: 81.2

* * *

tested on: UACC-62 melanoma; assay: NCI-60 one-dose screen, 48 h (100 = growth as untreated, 0 = no growth, -100 = all killed); details: 10 µM unless noted
Compounds without any hit were thinned out: in the full panel of roughly 83,000, 20% have a hit.
Param label: returns yes when growth < 60%, returns no otherwise, including exact equality.

Reference set (3 entries):
Cc1ccc(C(=O)Nc2ccc(Cl)cc2C(=O)NCc2ccccc2)cc1 = no
CC(C)C/C(=N\NC(=O)c1ccncc1)c1cc(Cl)ccc1O = yes
Cc1nc2cc(NC(=O)CN3CCN(CCN4C(=O)c5cccc6cccc(c56)C4=O)CC3)ccc2s1 = no

Query: Input CCN(CC)CCOc1ccc(C2=C(c3ccccc3)CCc3cc(OC)ccc32)cc1 ; condition: growth strictly below 60%. Does it hold?
Result: yes

Query: Ok, now CCS(=O)(=O)OCCCl
Result: no

Query: Ok, now O=C1NC(=O)/C(=C\c2ccccc2)C2=C1CCCC2
Result: yes

Query: Ok, now O=[N+]([O-])c1ccc(N/N=C\c2ccccc2[N+](=O)[O-])nc1
Result: no

Query: Ok, now Oc1ccc(Cc2ccc(O)c(C3CC(c4ccc(Cl)cc4)=NN3)c2)cc1C1CC(c2ccc(Cl)cc2)=NN1 (stereo not given)
Result: yes

* * *

System: HOP-62 NSCLC
Experiment: NCI-60 one-dose screen, 48 h
Settings: 10 µM unless noted
Protocol: Growth inhibition of the HOP-62 human Non-Small Cell Lung tumor cell line is measured as a screen for anti-cancer activity. Cells are grown in 96 well plates and exposed to the test compound for 48 hours. Compounds are tested at a single concentration, which is 10^-5 M for most compounds. The reported endpoint is percent growth (GI% or GIPRCNT), where numbers from 0 - 100% represent growth inhibition, and numbers from -100% - 0 represent cell death. […]
This is part of a sample that, as a whole, favours compounds with a hit. Of some 83,000 tested, about 20% had one in any assay. Calls of active or inactive are those of the source. Rule for the calls: active = growth percent below 10; inactive = the rest.
Tick one outcome: yes (1) = active, no (0) = inactive

NC(N)=NC(N)=NCCCc1ccccc1 = no (0)
CCN(CC)CCOc1ccc(C2=C(c3ccccc3)CCc3cc(OC)ccc32)cc1 = yes (1)
COc1ccc(-c2oc3cc(O)c(OC)c(O)c3c(=O)c2OC)cc1O = no (0)

Query: Per the assay record, what outcome was assigned to COc1cc([C@@H]2c3cc4c(cc3C(O[C@@H]3O[C@@H]5CO[C@@H](c6cccs6)OC5[C@H](O)[C@H]3O)C3COC(=O)[C@@H]32)OCO4)cc(OC)c1O (stereo partly specified) ?
Result: yes (1)

Query: Ok, now Cc1ccc([N+](=O)[O-])cc1NC(=O)Nc1cccc(F)c1
Result: no (0)

Query: Ok, now COc1c(O)cc2oc3cc(O)c(CC=C(C)C)c(O)c3c(=O)c2c1C/C=C(\C)CCC=C(C)C
Result: no (0)

* * *

tested on: UO-31 renal; test: NCI-60 one-dose screen, 48 h; settings: 10 µM unless noted
The panel holds about 83,000 compounds, 20% with a hit somewhere; the sample as a whole holds those more often. Calls of active or inactive are those of the source. Rule for the calls: active = growth percent below 10; inactive = the rest.
Tick one outcome: active, inactive

Reference set (2 entries):
COc1ccc(/C=C(\C#N)c2ccccc2)cc1 = inactive
Cn1[nH]cc(/C=N/C(N)=O)c1=O = inactive

Query: Per the assay record, what outcome was assigned to CCOc1cc(C(C)(C)C)ccc1C1=N[C@H](c2ccc(Cl)cc2)[C@H](c2ccc(Cl)cc2)N1C(=O)N1CCN(CC#Cc2cccc3c2CN([C@@H]2CCC(=O)NC2=O)C3=O)CC1 ?
Result: active

Query: Ok, now CN1COc2ccc3ccccc3c2C1
Result: inactive

Query: Ok, now O=C1OC(c2ccc(-c3ccccc3)cc2)=C/C1=C/c1cccs1
Result: inactive

Query: Ok, now CCN1C2=C(SC(=S)C1=C1SC(C(=O)OC)=C(C(=O)OC)S1)SC(=Nc1ccc(OC)cc1)C2=O
Result: active

* * *

test system: HT29 colon; assay: NCI-60 one-dose screen, 48 h (100 = growth as untreated, 0 = no growth, -100 = all killed); conditions: 10 µM unless noted
Compounds without any hit were thinned out: in the full panel of roughly 83,000, 20% have a hit.
Each record here notes measured growth.
Use % as the unit, but write only the number.

// worked examples, growth included
CC(O)c1nc2c(c(=O)n(C)c(=O)n2C)n1C (centres undefined) = 113
O=C(N1CCC(CN=c2cc3n(-c4ccc(Cl)cc4)c4ccccc4nc-3cc2Nc2ccc(Cl)cc2)CC1)N1CC1 = -97.9
O=C(/C(=C/c1ccc([N+](=O)[O-])cc1)c1ccccc1)c1ccccc1 = 44.1

Now let's try a different one.
Query: Find the measured growth: item O=NC1CC=CCC1c1ccccc1 (centres undefined) , target or system HT29 colon.
Result: 100

* * *

Each record here notes measured growth.
tested on: OVCAR-4 ovarian; assay: NCI-60 one-dose screen, 48 h (100 = growth as untreated, 0 = no growth, -100 = all killed); settings: 10 µM unless noted
About 83,000 compounds went through this panel and 20% of them were active in at least one assay; those are over-represented in the sample as a whole. The source made the active and inactive calls. How the source made its calls: active means growth percent below 10; inactive means the rest.

// worked examples, growth included
c1cnc2ccc3ncccc3c2c1 = 110% (inactive)
COc1ccc(-c2nnc(COc3ccc(NC(=O)Nc4cc(C(F)(F)F)cc(C(F)(F)F)c4)cc3F)o2)cc1 = 19.2% (inactive)

Query: # query: growth of entry COC(=O)CC1=C(C)/C(=C/c2[nH]c(-c3ccc[nH]3)cc2OC)N=C1C
Result: 10.5% (inactive)

* * *

Each record here notes measured growth.
tested on: HT29 colon; assay: NCI-60 one-dose screen, 48 h (100 = growth as untreated, 0 = no growth, -100 = all killed); settings: 10 µM unless noted
Compounds without any hit were thinned out: in the full panel of roughly 83,000, 20% have a hit.
Use % as the unit, but write only the number.

// worked examples, growth included
CN1C(=O)C(=Cc2cn(Cc3ccccc3)c3ccc(Br)cc23)C(=O)N(C)C1=O = 101
O=C1CCCN1C1CCN(Cc2cc3ccccc3[nH]c2=O)c2ccccc21 (stereo unspecified) = 92.9
COc1ccc(/C=C/C(=O)Nc2cccnc2Nc2ccc(F)cc2)cc1 = 109
COc1ccc(C2CC(c3cccc(Nc4ccnc5cc(Cl)ccc45)c3)=NN2C=O)cc1 (stereo unspecified) = -55.8
COc1ccc(C2=NN(C(C)=O)C(c3cc(OC)c(OC)c(OC)c3)C2)cc1 (stereo unspecified) = 103

Now let's try a different one.
Query: # query: growth of entry Cn1c(=O)c2nc(SCc3ccccc3)n(C)c2n(C)c1=O
Result: 113

* * *

Each record here notes measured growth.
tested on: NCI-H23 lung; test: NCI-60 one-dose screen, 48 h (100 = growth as untreated, 0 = no growth, -100 = all killed); details: 10 µM unless noted
This is part of a sample that, as a whole, favours compounds with a hit. Of some 83,000 tested, about 20% had one in any assay. The source made the active and inactive calls. How the source made its calls: active means growth percent below 10; inactive means the rest.

// worked examples, growth included
C=C1c2c(C)nn(-c3ccc(C#CCOC4OC(CO)C(O)C(O)C4O)cc3)c2N(C)C23C[C@H]1C1(C)c4c(C)nn(-c5ccc(C#CCOC6OC(CO)C(O)C(O)C6O)cc5)c4N(C)C(C)(C[C@H]12)C3 (stereo not given in full) = 12.4% (inactive)
O=C(Nc1ccc(Oc2ccc(NC(=O)Nc3ccc([N+](=O)[O-])cc3)cc2)cc1)Nc1ccc([N+](=O)[O-])cc1 = -17.8% (active)
CC1CC(C)/C(=N/NC(N)=O)C(C(O)CC2CCC(=O)NC2=O)C1 (stereo not given) = 36.1% (inactive)
O=C(Nc1ccccc1Cl)c1cnc2ccc(C3CCNCC3)cn12 = 95% (inactive)

Query: # query: growth of entry CCN(CC)c1ccc(N=Nc2cc(Cl)ccc2Cl)c(NC(=O)CCC(=O)O)c1
Result: 101% (inactive)

Query: Ok, now CC1=C(C(=O)Nc2ccccc2)C(c2ccc3c(c2)OCCO3)NC(=O)N1 (stereo not given)
Result: 101% (inactive)

Query: Ok, now O=C1C2C3C=CC(O3)C2C(=O)N1Nc1ccccc1 (stereo not given)
Result: 106% (inactive)

Query: Ok, now CC12CCC3C(CCC4CC(=O)/C(=C\O)CC43C)C1CCC(=O)O2 (stereo not given)
Result: 98.8% (inactive)

Query: Ok, now c1csc([C@@H]2C[C@@H]3Cc4ccc5ccccc5c4N2O3)c1
Result: 95.5% (inactive)

Query: Ok, now COc1cc(/C=C/C(=O)c2c(-c3ccc(F)cc3)nc3sc(C)nn23)cc(OC)c1OC
Result: 51.4% (inactive)

Query: Ok, now Nc1c2ccccc2nc2ccccc12 (tested in a mixture with another compound)
Result: 19.2% (inactive)

Query: Ok, now Cc1cc(=O)n2n1-c1ccc(Cl)cc1NC(=O)C2
Result: 109% (inactive)

Query: Ok, now OCc1nnn(-c2ccccc2)c1CO
Result: 112% (inactive)

Query: Ok, now COC(=O)CCC1=C(CC(=O)OC)C(C)=N/C1=C\c1[nH]c(-c2ccc[nH]2)cc1OC
Result: 49.4% (inactive)

Query: Ok, now Fc1ccc(-c2nc(Nc3ccc(-c4nc5ccccc5[nH]4)cc3)nc(N3CCOCC3)n2)cc1
Result: -83.4% (active)

Query: Ok, now O=Cc1c[nH]c2ccc(NC(=O)OCc3ccccc3)cc12
Result: 95.4% (inactive)

Query: Ok, now C=C(C)[C@@H]1C[C@H](O)Cc2cc(Cl)cc(Cl)c2N1
Result: 103% (inactive)
